system: KM12 colon; assay: NCI tumour cell line growth inhibition, 48 h
Measured Endpoint: TGI

>>> value_measured("CCC(C=O)P1(=O)OC(C)(C)CN1C(C)(C)C (stereo not given)")
"> 100 µM"
>>> value_measured("COc1ccc2c(c1)N(CCO)C1=C(C(=O)OC1)C2c1cccc(F)c1 (stereo not given)")
"> 50 µM"
>>> value_measured("CC1=NNC(=O)C1C1CC(c2c[nH]c3ccccc23)=NNC1=O (stereo not given)")
"> 100 µM"
>>> value_measured("O=C1OC(Cc2ccccc2)(N2CCCC2=O)C1c1ccccc1 (stereo not given)")
"> 100 µM"
>>> value_measured("CC(=O)/C=C/c1cn(C(=O)OC(C)(C)C)c2ccc(Br)cc12")
"29.1 µM"
>>> value_measured("CCOC(=O)C1=NOC2(C=C(Br)C(=O)C(Br)=C2)C1")
"29.7 µM"
>>> value_measured("C/C(=N\\Nc1ccc([N+](=O)[O-])cc1[N+](=O)[O-])c1sc(-n2nc(-c3ccccc3)cc2-c2ccccc2)nc1C")
"> 100 µM"
>>> value_measured("O=C(NC1CCCCC1NC(c1ccccc1)(c1ccccc1)c1ccccc1)C(=O)NC1CCCCC1NC(c1ccccc1)(c1ccccc1)c1ccccc1 (stereo not given)")
"> 100 µM"
>>> value_measured("COc1cc2c(c(OC)c1)/C(=C/Sc1ccccc1)C(=O)N(C(C)(C)C)C2")
"66.1 µM"
>>> value_measured("COc1ccc(C=O)c([N+](=O)[O-])c1")
"> 100 µM"
>>> value_measured("O=C1c2cccnc2C(=O)c2c1c(C(=O)NCCCN1CCCCC1)c1ccccn21")
"10.1 µM"
>>> value_measured("CCOC(=O)C1=C(C)N(c2ccc(Cl)cc2)[C@]2(C#N)C(O)=C(Cl)C(Cl)=C(O)[C@]12C#N")
"> 100 µM"
>>> value_measured("CCCN(CCS(C)(=O)=O)Cc1ccc(-c2ccc3ncnc(Nc4ccc(OCc5cccc(F)c5)c(Cl)c4)c3c2)o1")
"> 25 µM"
>>> value_measured("O=C1C=CC2(C=C1)O[C@H](Cc1ccccc1)[C@@H](Cc1ccccc1)O2")
"4.51 µM"
>>> value_measured("O=C1c2c(c3c4ccccc4[nH]c3c3ccc4ccccc4c23)C(=O)N1CCN1CCNCC1")
"3.07 µM"

* * *

test system: RPMI-8226 leukemia; test: NCI tumour cell line growth inhibition, 48 h
// reported TGI for each item listed
Measured Endpoint: TGI (µM)

>>> value_measured("NC(=O)c1csc(C2OC(CO)C(O)C2O)n1 (stereo not given)")
8150
>>> value_measured("COc1ccc(-c2nc(Nc3cc(C)[nH]n3)c3ccccc3n2)cc1")
28.6
>>> value_measured("COc1ccc(-c2cc(-c3ccc(C)cc3)nc3nc(=S)[nH]c(N)c23)cc1")
44.4
>>> value_measured("CSc1nc2c(c(=O)[nH]1)N=C(c1ccc([N+](=O)[O-])cc1)CC(c1ccccc1)N2 (stereo not given)")
57.5
>>> value_measured("CC(=O)Nc1ccc(SC#N)c2c(NC(C)=O)cccc12")
73.9
>>> value_measured("CN(C)CCCN1c2ccccc2Sc2ccc3ccccc3c21")
7.45
>>> value_measured("COC1C=COC2(C)Oc3c(C)c(O)c4c(c3C2=O)/C(=N/C2CCC(O)OC2C)C=C(NC(=O)/C(C)=C\\C(=O)C2CC2C(O)C(C)C(O)C(C)C(OC(C)=O)C1C)C4=O (stereo not given)")
5.74
>>> value_measured("CN(C)CCCn1c(=O)c2ccccc2c2ccccc21")
77.7
>>> value_measured("Cc1ccc(NC(Nc2ccc(C)cc2C)=C(/C=C(\\Cl)[N+](=O)[O-])[N+](=O)[O-])c(C)c1")
4.36
>>> value_measured("O=C1OCC2OC(=O)c3cc(O)c(O)c(O)c3-c3c(O)c(O)c(O)c4c3C(=O)OC(C2OC(=O)c2cc(O)c(O)c(O)c2-c2c1cc(O)c(O)c2O)C1OC(=O)c2c-4c(O)c(O)c(O)c2[C@@H]1C(O)C(O)C(O)C(O)CO (stereo not given in full)")
73.8
>>> value_measured("O=C1C=CC2(C=C1)O[C@H](Cc1ccccc1)[C@@H](Cc1ccccc1)O2")
0.499
